# targetOfAssay: Type 1 InsP3 receptor isoform S2 (Sus scrofa)
# Sequence (P79248 whole entry, canonical isoform): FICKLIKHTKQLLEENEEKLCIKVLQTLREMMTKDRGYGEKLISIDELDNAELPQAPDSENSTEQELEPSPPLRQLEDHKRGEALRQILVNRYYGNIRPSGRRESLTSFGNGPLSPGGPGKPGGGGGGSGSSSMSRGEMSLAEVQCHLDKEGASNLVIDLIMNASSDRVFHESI
# assay: Binding affinity of compound was determined by its ability to displace specifically bound […] from purified porcine cerebellum membrane
# Type: tissue-based
Listing of recorded IC50 by entry.
measuredMetric: IC50 (nM)

[
  {
    "compound": "O=P(O)(O)O[C@@H]1[C@H](O)[C@H](O)[C@@H](OP(=O)(O)O)[C@H](OP(=O)(O)O)[C@H]1O",
    "measuredMetric": "IC50",
    "unitLabel": "nM",
    "valueObserved": 20
  },
  {
    "compound": "O=P(O)(O)OC1CC(OP(=O)(O)O)C(OP(=O)(O)O)C(O)C1O (configuration not stated)",
    "measuredMetric": "IC50",
    "unitLabel": "nM",
    "valueObserved": 1500
  }
]
